measuredTarget: AP (Escherichia coli alkaline phosphatase) (Escherichia coli, UniProt P00634, E344Y)
Sequence (P00634 23-471 E344Y): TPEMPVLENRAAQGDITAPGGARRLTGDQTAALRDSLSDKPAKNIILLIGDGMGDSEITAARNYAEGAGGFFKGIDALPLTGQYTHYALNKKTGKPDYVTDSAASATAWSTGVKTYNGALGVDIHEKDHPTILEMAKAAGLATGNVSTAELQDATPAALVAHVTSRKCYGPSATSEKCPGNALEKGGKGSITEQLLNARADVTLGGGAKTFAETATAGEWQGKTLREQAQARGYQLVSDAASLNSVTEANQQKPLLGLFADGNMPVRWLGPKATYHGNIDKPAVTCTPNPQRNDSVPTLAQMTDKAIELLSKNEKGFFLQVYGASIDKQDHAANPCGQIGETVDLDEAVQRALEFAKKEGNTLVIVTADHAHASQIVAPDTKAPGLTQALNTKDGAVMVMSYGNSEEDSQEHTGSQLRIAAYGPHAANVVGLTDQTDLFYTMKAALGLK
protocolDetails: inhibition of methyl p-nitrophenyl phosphate hydrolysis, […] nm
measureName: Ki (µM)
// note: answer is a bare numeric in µM

// recorded Ki for [O]=[V]([OH])([OH])[OH] [vanadate] : 28

* * *

In this section, each of the molecules is paired with its reported pKi.
measuredTarget: AP (Escherichia coli alkaline phosphatase) (Escherichia coli, UniProt P00634, D175A)
Sequence (P00634 23-471 D175A): as the sequence (P00634 23-471 E344Y) above, with D153A, Y322E counted along it
protocolDetails: inhibition of methyl p-nitrophenyl phosphate hydrolysis, […] nm
Notebook: values listed as pKi are -log10 of the concentration (mol/L).

molecule | pKi
[O]=[W](=[O])([OH])[OH] [tungstate] | 4.19

Continue with the molecule presented below.
The reported value for [O]=[V]([OH])([OH])[OH] [vanadate] in terms of pKi is 4.77

Where do these numbers come from? They come from paper PMC6169531.
